Readings of pKd for the listed binders
# Tgt: T1, p53^1-94 (human p53 residues 1 to 94: transactivation domains 1 and 2 and poly-proline region) (human, UniProt P04637 1-94)
# T1 construct: human p53, amino acids 1 to 94; 15N- or 13C,15N-labelled for NMR, unlabelled for fluorescence polarisation; also called N-terminal disordered region; source: E. coli BL21-DE3 Star, purified (lysis in 6 M urea, Ni-NTA, TEV cleavage, second Ni-NTA, SEC on Superdex 75 Increase)
# Protocol notes: fluorescence polarisation; 100 nM FITC-labelled PR25/GR25 with increasing concentrations of p53 1-94 or p53 TAD2; room temperature; 20 mM Hepes pH 7.0, 50 mM NaCl, 2 mM TCEP, 0.04% NaN3; fit assuming a 1:1 complex
# Measurement parameters: both partners purified
Where no end group is shown, it is not given here. The star is where a group is joined. FITC = O=C1OC2(c3ccc(O)cc3Oc3cc(O)ccc32)c2ccc(NC(=S)*)cc21
Hey, just a heads up that pKd is the negative log base 10 of the concentration in molar.

>>> value_observed("{FITC}-PRPRPRPRPRPRPRPRPRPRPRPRPRPRPRPRPRPRPRPRPRPRPRPRPR (C9orf72 repeat-derived dipeptide repeat; also called FITC-labeled PR25; FITC-PR25; source: synthetic peptide (Peptide Specialty Laboratories GmbH, HPLC-purified)) [N-terminally fluorescein isothiocyanate (FITC)-labelled PR25]")
5.74

Entry {FITC}-GRGRGRGRGRGRGRGRGRGRGRGRGRGRGRGRGRGRGRGRGRGRGRGRGR (C9orf72 repeat-derived dipeptide repeat; also called FITC-labeled GR25; FITC-GR25; source: synthetic peptide (Peptide Specialty Laboratories GmbH, HPLC-purified)) [N-terminally fluorescein isothiocyanate (FITC)-labelled GR25] ; pKd = 6.37
